- Tested on: N. gonorrhoeae WHO M
- ASSAY TEXT: Liquid broth MIC in Fastidious broth
- CONDITIONS: Neisseria gonorrhoeae, read-out: Minimum Inhibitory Concentration (MIC), N. gonorrhoeae WHO M
TEST READOUT: MIC

Record excerpt, results attached:
[[record]]
molecule = "O=C(NC(C(=O)N[C@H]1Cc2cccc(C(=O)O)c2OB1O)c1ccc(P(=O)(O)O)cc1)c1ccccn1 (some centres unmarked) [Example 32]"
measured_result = "< 1 µg/mL"

[[record]]
molecule = "O=C(O)c1cccc2c1OB(O)[C@@H](NC(=O)C(NC(=O)N1CCCNC1=O)c1ccc(P(=O)(O)O)cc1)C2 (some centres unmarked) [Example 56]"
measured_result = "< 1 µg/mL"

[[record]]
molecule = "O=C(NCCCN1CCN(C(=O)N[C@@H](C(=O)N[C@H]2Cc3ccc(F)c(C(=O)O)c3OB2O)c2cc(F)c(O)c(O)c2Cl)C(=O)C1=O)c1cccnc1 [Example 210]"
measured_result = "16 to 32 µg/mL"


Note down MIC recorded for O=C(O)c1c(F)ccc2c1OB(O)[C@@H](NC(=O)[C@H](NC(=O)N1CCN(CCNC(=O)[C@@H]3CCCN3)C(=O)C1=O)c1cc(F)c(O)c(O)c1Cl)C2 [Example 229]
4 to 8 µg/mL

Read the entry CCN1CCN(C(=O)NC(C(=O)N[C@H]2Cc3cccc(C(=O)O)c3OB2O)c2cccc(CP(=O)(O)O)c2)C(=O)C1=O (some centres unmarked) [Example 22] and write its reported MIC.
< 1 µg/mL

Return reported MIC. Input molecule: CS(=O)(=O)N1CCN(C(=O)N[C@@H](C(=O)N[C@H]2Cc3ccc(F)c(C(=O)O)c3OB2O)c2ccc(P(=O)(O)O)c(F)c2F)C1=O [Example 16]
< 1 µg/mL

Tell me its MIC given CN(CCN1CCN(C(=O)NC(C(=O)N[C@H]2Cc3ccc(F)c(C(=O)O)c3OB2O)c2cc(F)c(O)c(O)c2Cl)C(=O)C1=O)S(=O)(=O)c1ccc(C(N)=O)cc1 (some centres unmarked) [Example 223] as the entry.
16 to 32 µg/mL

Return the recorded MIC value; entry: CC(=O)NC(C(=O)N[C@H]1Cc2cccc(C(=O)O)c2OB1O)c1ccc(P(=O)(O)O)cc1 (some centres unmarked) [Example 26]
4 to 8 µg/mL

Respond only with MIC recorded for O=C(NCCCN1CCN(C(=O)NC(C(=O)N[C@H]2Cc3ccc(F)c(C(=O)O)c3OB2O)c2cc(F)c(O)c(O)c2Cl)C(=O)C1=O)Nc1cccc(O)c1 (some centres unmarked) [Example 206]
4 to 8 µg/mL

Look up and report measured MIC for this entry: CCN1CCN(C(=O)NC(C(=O)N[C@H]2Cc3cccc(C(=O)O)c3OB2O)c2ccc(P(=O)(O)O)c(O)c2)C(=O)C1=O (some centres unmarked) [Example 21]
< 1 µg/mL

Provide MIC value for the following molecule: NC(C(=O)N[C@H]1Cc2ccc(F)c(C(=O)O)c2OB1O)c1ccc(P(=O)(O)O)cc1 (some centres unmarked) [Example 14]
> 64 µg/mL

###

- ASSAYED TARGET: A. baumannii PBP1a (Acinetobacter baumannii)
- Sequence (A0ABX6CK30 1-851): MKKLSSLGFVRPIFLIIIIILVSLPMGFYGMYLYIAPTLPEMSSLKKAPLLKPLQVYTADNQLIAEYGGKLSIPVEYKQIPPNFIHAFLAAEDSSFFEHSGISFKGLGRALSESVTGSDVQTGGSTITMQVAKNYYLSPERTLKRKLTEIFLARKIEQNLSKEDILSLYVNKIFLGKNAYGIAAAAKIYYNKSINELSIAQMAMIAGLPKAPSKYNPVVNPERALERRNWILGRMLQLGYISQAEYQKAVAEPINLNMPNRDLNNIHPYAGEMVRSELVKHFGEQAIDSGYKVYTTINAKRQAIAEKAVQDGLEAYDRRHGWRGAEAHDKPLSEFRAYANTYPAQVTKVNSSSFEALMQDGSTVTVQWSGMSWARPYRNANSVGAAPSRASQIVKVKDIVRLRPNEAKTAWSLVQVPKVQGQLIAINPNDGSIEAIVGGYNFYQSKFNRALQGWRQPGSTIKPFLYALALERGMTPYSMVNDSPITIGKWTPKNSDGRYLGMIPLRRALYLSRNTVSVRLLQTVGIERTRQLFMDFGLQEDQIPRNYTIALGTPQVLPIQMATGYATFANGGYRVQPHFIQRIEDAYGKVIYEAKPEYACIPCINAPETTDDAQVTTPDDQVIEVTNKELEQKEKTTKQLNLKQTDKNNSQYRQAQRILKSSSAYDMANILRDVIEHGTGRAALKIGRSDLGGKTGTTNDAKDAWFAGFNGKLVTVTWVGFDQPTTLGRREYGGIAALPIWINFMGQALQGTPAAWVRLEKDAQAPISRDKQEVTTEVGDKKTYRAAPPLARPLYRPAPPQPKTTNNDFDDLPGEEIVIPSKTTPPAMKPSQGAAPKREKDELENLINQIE
- ASSAY TEXT: Bocillin-FL competition binding via gel filtration, A. baumannii PBP1a
- CONDITIONS: competition binding assay using Bocillin-FL via gel filtration; read-out: A. baumannii PBP1a Potency
pEC50: −log10 of the molar value.
TEST READOUT: pEC50

[[record]]
molecule = "O=C(O)c1c(F)ccc2c1OB(O)[C@@H](NC(=O)C(NC(=O)N1CCN(C3CCN(Cc4ccc(O)cc4F)CC3)C1=O)c1cc(F)c(O)c(O)c1Cl)C2 (single isomer, unassigned)"
assayed_target = "A. baumannii PBP1a (Acinetobacter baumannii)"
test_readout = "pEC50"
measured_result = "> 5.00"


Give pEC50 for the following molecule: O=C(NCCN1CCN(C(=O)NC(C(=O)N[C@H]2Cc3ccc(F)c(C(=O)O)c3OB2O)c2cc(F)c(O)c(O)c2Cl)C(=O)C1=O)c1ccccc1 (stereo partly shown)
4.30 to 5.00

Please supply the value of reported pEC50 for the item NCc1cccc(C(=O)N2CCC(N3CCN(C(=O)N[C@@H](C(=O)N[C@H]4Cc5ccc(F)c(C(=O)O)c5OB4O)c4cc(F)c(O)c(O)c4Cl)C3=O)CC2)c1
4.30 to 5.00

Consider the molecule O=C(O)c1c(F)ccc2c1OB(O)[C@@H](NC(=O)[C@H](NC(=O)N1CCN(C3CCN(S(=O)(=O)c4ccc5[nH]nnc5c4)CC3)C1=O)c1cc(F)c(O)c(O)c1Cl)C2 (single isomer, unassigned) and give its recorded pEC50.
> 5.00

###

- ASSAYED TARGET: PBP3 from Pseudomonas aeruginosa (PAO1) (Pseudomonas aeruginosa)
- Sequence (G3XD46 whole entry): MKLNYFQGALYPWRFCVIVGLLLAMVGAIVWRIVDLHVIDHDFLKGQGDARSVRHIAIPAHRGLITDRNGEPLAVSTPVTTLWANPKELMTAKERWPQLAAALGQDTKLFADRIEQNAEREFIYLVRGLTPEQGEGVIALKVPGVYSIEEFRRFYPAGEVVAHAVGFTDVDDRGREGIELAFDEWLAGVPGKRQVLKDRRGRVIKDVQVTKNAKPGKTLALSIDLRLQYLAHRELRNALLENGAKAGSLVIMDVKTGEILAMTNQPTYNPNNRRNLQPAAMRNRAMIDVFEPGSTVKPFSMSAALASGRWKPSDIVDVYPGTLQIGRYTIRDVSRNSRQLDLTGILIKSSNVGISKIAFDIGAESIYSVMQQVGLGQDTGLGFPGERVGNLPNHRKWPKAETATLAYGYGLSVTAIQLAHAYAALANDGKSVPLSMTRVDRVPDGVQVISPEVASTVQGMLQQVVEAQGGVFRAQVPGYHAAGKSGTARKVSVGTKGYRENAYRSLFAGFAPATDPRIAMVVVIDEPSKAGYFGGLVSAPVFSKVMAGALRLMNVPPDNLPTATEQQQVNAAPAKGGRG
- ASSAY TEXT: Bocillin-FL fluorescence polarization competition binding, P. aeruginosa PBP3
- CONDITIONS: Binding affinity to P. aeruginosa PBP3; fluorescence polarization competition binding assay using Bocillin-FL; read-out: P. aeruginosa PBP3 Potency
compounds and their reported IC50

[[record]]
compound = "O=C(NCCN1CCN(C(=O)NC(C(=O)N[C@H]2Cc3ccc(F)c(C(=O)O)c3OB2O)c2cc(F)c(O)c(O)c2Cl)C(=O)C1=O)c1ccncc1 (stereo partly shown)"
assayed_target = "PBP3 from Pseudomonas aeruginosa (PAO1) (Pseudomonas aeruginosa)"
test_readout = "IC50"
measured_result = "< 10 µM"

[[record]]
compound = "O=C(O)c1c(F)ccc2c1OB(O)[C@@H](NC(=O)[C@H](NC(=O)N1CCN(C3CCN(C(=O)c4cc(F)c(F)c(O)c4F)CC3)C1=O)c1cc(F)c(O)c(O)c1Cl)C2 (single isomer, unassigned)"
assayed_target = "PBP3 from Pseudomonas aeruginosa (PAO1) (Pseudomonas aeruginosa)"
test_readout = "IC50"
measured_result = "< 10 µM"

[[record]]
compound = "O=C(O)c1cccc2c1OB(O)[C@@H](NC(=O)C(NS(=O)(=O)C1CC1)c1ccc(P(=O)(O)O)cc1)C2 (stereo partly shown)"
assayed_target = "PBP3 from Pseudomonas aeruginosa (PAO1) (Pseudomonas aeruginosa)"
test_readout = "IC50"
measured_result = "10 to 50 µM"


Next:
Given the compound O=C(CN1CCN(C(=O)NC(C(=O)N[C@H]2Cc3ccc(F)c(C(=O)O)c3OB2O)c2cc(F)c(O)c(O)c2Cl)C(=O)C1=O)Nc1cccnc1 (stereo partly shown) , write its reported IC50.
< 10 µM

###

- Test system: N. gonorrhoeae WHO K
- ASSAY TEXT: Liquid broth MIC in Fastidious broth
- CONDITIONS: Neisseria gonorrhoeae, read-out: Minimum Inhibitory Concentration (MIC), N. gonorrhoeae WHO K
TEST READOUT: MIC

[[record]]
compound = "CCN1CCN(C(=O)NC(C(=O)N[C@H]2Cc3cccc(C(=O)O)c3OB2O)c2ccc(P(=O)(O)O)c(O)c2)C(=O)C1=O (stereo partly drawn) [Example 21]"
assayed_target = "N. gonorrhoeae WHO K"
test_readout = "MIC"
measured_result = "< 1 µg/mL"

[[record]]
compound = "O=C(O)c1cccc2c1OB(O)[C@@H](NC(=O)C(NC(=O)N1CCN(CC(F)(F)F)C(=O)C1=O)c1ccc(P(=O)(O)O)cc1)C2 (stereo partly drawn) [Example 4]"
assayed_target = "N. gonorrhoeae WHO K"
test_readout = "MIC"
measured_result = "1 to 2 µg/mL"


Now examine the next entry.
Give me measured MIC, please, for this compound: O=C(NC(C(=O)N[C@H]1Cc2cccc(C(=O)O)c2OB1O)c1ccc(P(=O)(O)O)cc1)c1ccc(Cl)cn1 (stereo partly drawn) [Example 184]
1 to 2 µg/mL

###

- Tested on: N. gonorrhoeae WHO Z
- ASSAY TEXT: Liquid broth MIC in Fastidious broth
- CONDITIONS: Neisseria gonorrhoeae, read-out: Minimum Inhibitory Concentration (MIC), N. gonorrhoeae WHO Z
TEST READOUT: MIC

Answered cases to consult:
[[record]]
compound = "CN(CCN1CCN(C(=O)N[C@@H](C(=O)N[C@H]2Cc3ccc(F)c(C(=O)O)c3OB2O)c2cc(F)c(O)c(O)c2Cl)C(=O)C1=O)Cc1cccc(C(N)=O)c1"
test_readout = "MIC"
measured_result = "16 to 32 µg/mL"

[[record]]
compound = "Nc1ncc(C(=O)N[C@@H](C(=O)N[C@H]2Cc3cccc(C(=O)O)c3OB2O)c2ccc(P(=O)(O)O)cc2)s1 (racemic)"
test_readout = "MIC"
measured_result = "16 to 32 µg/mL"

[[record]]
compound = "O=C(NCCCN1CCN(C(=O)N[C@@H](C(=O)N[C@H]2Cc3ccc(F)c(C(=O)O)c3OB2O)c2cc(F)c(O)c(O)c2Cl)C(=O)C1=O)c1cccnc1"
test_readout = "MIC"
measured_result = "16 to 32 µg/mL"


Please respond with reported MIC (system N. gonorrhoeae WHO Z) for O=C(O)c1c(F)ccc2c1OB(O)[C@@H](NC(=O)C(NC(=O)N1CCN(Cc3cc(F)c(O)c(O)c3Cl)C(=O)C1=O)c1ccc(P(=O)(O)O)cc1)C2 (some centres unmarked) .
1 to 2 µg/mL

GET MIC where system = N. gonorrhoeae WHO Z and item = O=C(O)c1cccc2c1OB(O)[C@@H](NC(=O)[C@H](NC(=O)N1CCNC1=O)c1ccc(P(=O)(O)O)cc1)C2
< 1 µg/mL
